I'd be grateful if you could share measured IC50 for these entries.
- TARGET_OF_ASSAY: recombinant human AChE (Homo sapiens, UniProt P22303)
- Sequence (P22303 32-614): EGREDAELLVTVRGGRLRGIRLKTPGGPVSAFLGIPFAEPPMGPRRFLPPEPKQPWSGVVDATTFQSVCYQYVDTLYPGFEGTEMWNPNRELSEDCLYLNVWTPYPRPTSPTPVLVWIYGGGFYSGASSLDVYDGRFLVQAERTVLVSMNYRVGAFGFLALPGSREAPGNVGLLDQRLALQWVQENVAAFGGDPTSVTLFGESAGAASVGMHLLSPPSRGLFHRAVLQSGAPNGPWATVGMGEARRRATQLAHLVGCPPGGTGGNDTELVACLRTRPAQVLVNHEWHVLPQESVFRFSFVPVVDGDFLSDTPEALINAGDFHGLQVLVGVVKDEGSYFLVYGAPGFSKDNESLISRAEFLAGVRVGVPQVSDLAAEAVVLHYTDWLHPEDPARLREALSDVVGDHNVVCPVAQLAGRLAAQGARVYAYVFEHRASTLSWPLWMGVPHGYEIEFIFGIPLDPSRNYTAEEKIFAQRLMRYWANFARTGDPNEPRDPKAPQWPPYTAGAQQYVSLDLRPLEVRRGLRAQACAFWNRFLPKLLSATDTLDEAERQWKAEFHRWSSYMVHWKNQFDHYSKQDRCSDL
- MEASUREMENT_DESCRIPTION: biochemical
- ASSAY_SETUP: potency (IC50), Enzyme with microsomes
Answers are plain numbers, in µM.

Sample answers from the record:
>  <COMPOUND>
CCOP(=S)(OCC)OC(Cl)C(Cl)(Cl)Cl (stereo not shown) [Chlorethoxyfos]

>  <UNITS_TEXT>
µM

>  <IC50>
5.86

$$$$
>  <COMPOUND>
CCOC(=O)c1cn2nc(OP(=S)(OCC)OCC)cc2nc1C [Pyrazophos]

>  <UNITS_TEXT>
µM

>  <IC50>
7.89

$$$$
>  <COMPOUND>
CCN1CCC2(CC1)COc1cc3c(cc12)N(C(=O)c1ccc(-c2ccc(-c4nnc(C)o4)cc2C)cc1)CC3.Cl [SB236057A]

>  <UNITS_TEXT>
µM

>  <IC50>
66

$$$$

Lab request: please report IC50 under test system recombinant human AChE (Homo sapiens, UniProt P22303) for Cc1ccc2c(n1)Oc1ccc(C(C)C(=O)OCC(=O)N(C)C)cc1C2 (stereo not shown) [Mepranoprofen arbamel, reference compound]
37.3
